Molecular target: T1, mouse MAdCAM expressed on cells (mouse, UniProt Q61826 22-405)
T1 construct: whole, on cells
T1 sequence (looked up): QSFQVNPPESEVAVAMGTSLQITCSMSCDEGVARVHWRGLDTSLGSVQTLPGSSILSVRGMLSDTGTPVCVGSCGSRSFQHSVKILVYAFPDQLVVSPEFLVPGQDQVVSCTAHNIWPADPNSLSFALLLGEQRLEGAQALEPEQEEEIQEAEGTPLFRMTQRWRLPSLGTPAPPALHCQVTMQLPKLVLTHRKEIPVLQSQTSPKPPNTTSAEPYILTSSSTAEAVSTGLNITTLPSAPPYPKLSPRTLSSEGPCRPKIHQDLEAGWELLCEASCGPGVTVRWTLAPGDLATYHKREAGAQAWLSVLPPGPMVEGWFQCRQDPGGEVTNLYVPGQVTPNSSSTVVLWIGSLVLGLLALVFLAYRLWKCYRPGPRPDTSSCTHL
Assay: cell binding
testReadout: binding result

In: Using the record for MAdCAM antibody Table 1 clone 63 (scFv) scFv: EVQLLESGGGLVKPGGSLRLSCAASGFTFDDYAMHWVRQAPGKGLEWVASITSSSAFIDYAASVKGRFTISRDDSKNTLYLQMNSLKTEDTAVYYCARERVDWNSYFDLWGRGTLVTVSSGGGGSGGGGSGGGGSGGGGSEIVMTQSPATLSVSPGERATLSCRASQGISNSYLAWYQQKPGQAPRLLIYGASTRATGIPARFSGSGSGTEFTLTISSLQSEDFAVYYCQQYYTYPPTFGPGTKVDIK , state its measured binding result.
Out: binds

In: Identify measured binding result associated with MAdCAM antibody Table 1 clone 48 (scFv) scFv: EVQLLESGGGLVQPGGSLRLSCAASGFTFSDHGMHWVRQAPGKGLEWVSVIYGGESTYYADSVKGRFTISRDNSKNTLYLQMNSLRAEDTAVYYCARDPAVAGGGIFDYWGQGTLVTVSSGGGGSGGGGSGGGGSGGGGSDIQMTQSPSSLSASVGDRVTITCRASQGISNYLAWYQQKPGKAPKLLIYDASNLETGVPSRFSGSGSGTDFTLTISSLQPEDFATYYCQQSYSTCYTFGQGTKLEIK
Out: no binding

In: Give the reported binding result for this binder. MAdCAM antibody Table 1 clone 30 (scFv) scFv: QVQLVQSGAEVKKPGASVKVSCKASGYTLTTWYMYWVRQAPGQGLEWMGWINPNRGATNYAQKFQGRVTMTRDTSTSTVYMELSSLRSEDTAVYYCAKGDLWGAMDVWGQGTLVTVSSGGGGSGGGGSGGGGSGGGGSDIQMTQSPSSLSASVGDRVTITCRASDNIGSWLAWYQQKPGKAPKLLIYAASSLQSGVPSRFSGSGSGTDFTLTISSLQPEDFATYYCQQGYSTPPTFGQGTKVEIK
Out: no binding
